- system_name: GSK3α TYR 279 (Homo sapiens (Human))
- Sequence (P49840 whole entry): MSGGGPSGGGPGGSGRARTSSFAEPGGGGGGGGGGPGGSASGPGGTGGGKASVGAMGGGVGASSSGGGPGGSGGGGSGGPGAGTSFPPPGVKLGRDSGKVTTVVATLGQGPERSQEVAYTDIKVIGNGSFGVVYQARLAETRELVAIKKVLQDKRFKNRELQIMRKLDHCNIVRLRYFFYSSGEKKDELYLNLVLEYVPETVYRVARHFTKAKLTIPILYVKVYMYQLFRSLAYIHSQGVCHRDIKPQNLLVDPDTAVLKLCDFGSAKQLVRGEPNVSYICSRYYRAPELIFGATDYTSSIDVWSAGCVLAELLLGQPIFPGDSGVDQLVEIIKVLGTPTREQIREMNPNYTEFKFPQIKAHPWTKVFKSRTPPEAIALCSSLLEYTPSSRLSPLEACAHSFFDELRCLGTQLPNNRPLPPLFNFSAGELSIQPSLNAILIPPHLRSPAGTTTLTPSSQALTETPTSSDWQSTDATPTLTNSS
- test_method_notes: GSK-3α p-TYR inhibition assay, western blotting of Jurkat cells
- Format: cell-based
- measurement_parameters: compound incubated o/n, read-out: GSK3a pTYR 279: IC50
measured_property: IC50 (nM)
Quick note: give the figure in nM, leave out the unit.

Find IC50 (GSK3α TYR 279 (Homo sapiens (Human))) for the entry `Cc1cc(Nc2n[nH]c3ncc(F)cc23)nc(-c2ccccc2Cl)c1`
2

Find IC50 (GSK3α TYR 279 (Homo sapiens (Human))) for the entry `Fc1cnc2[nH]nc(Nc3cc(C(F)(F)F)cc(-c4ccccc4Cl)n3)c2c1`
3

Find IC50 (GSK3α TYR 279 (Homo sapiens (Human))) for the entry `Cc1cc(Nc2n[nH]c3ncc(F)cc23)nc(-c2ccccc2)c1C`
0.6

Find IC50 (GSK3α TYR 279 (Homo sapiens (Human))) for the entry `Cc1cc(-c2ccccc2Cl)nc(Nc2n[nH]c3ncc(F)cc23)c1C`
30

Find IC50 (GSK3α TYR 279 (Homo sapiens (Human))) for the entry `Cc1cc(Nc2n[nH]c3ncc(F)cc23)nc(-c2ccccc2Cl)c1C`
10

---

Assignment: determine reported pKi for the given compounds.
- system_name: GSK-3β (AA 1-420) (Homo sapiens (Human), UniProt P49841)
- Sequence (P49841 whole entry, species assumed, the tested form may be a part): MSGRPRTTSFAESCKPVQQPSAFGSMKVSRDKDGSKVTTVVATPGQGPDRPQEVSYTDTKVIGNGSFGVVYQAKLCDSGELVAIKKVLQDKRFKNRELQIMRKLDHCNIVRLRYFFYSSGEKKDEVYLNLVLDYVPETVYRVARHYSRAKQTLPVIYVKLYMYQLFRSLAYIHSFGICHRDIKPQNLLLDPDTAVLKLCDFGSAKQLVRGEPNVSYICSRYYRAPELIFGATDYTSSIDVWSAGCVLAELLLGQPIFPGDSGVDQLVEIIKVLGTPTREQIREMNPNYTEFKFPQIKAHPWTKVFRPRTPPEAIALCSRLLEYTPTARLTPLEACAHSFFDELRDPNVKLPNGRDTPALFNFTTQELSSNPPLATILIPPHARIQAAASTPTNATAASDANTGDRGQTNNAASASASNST
- test_method_notes: GSK-3 Inhibition Assay (standard coupled enzyme system)
- Type: biochemical
- measurement_parameters: 20 μM ATP, 300 μM peptide, 20 nM GSK-3β, 30° C.; read-out: Ki value, inhibition of GSK-3
- Procedure: Compounds of the present invention were screened for their ability to inhibit GSK-3β (AA 1-420) activity using a standard coupled enzyme system (Fox et al., Protein Sci. 1998, 7, 2249). […] An assay stock buffer solution was prepared containing all of the reagents listed above with the exception of ATP and the test compound of the present invention. […] Rates of reaction were obtained using a Molecular Devices Spectramax plate reader (Sunnyvale, Calif.) over 10 min at 30° C. […]
pKi: −log10 of the molar value.

Find pKi (GSK-3β (AA 1-420) (Homo sapiens (Human), UniProt P49841)) for the entry `Cc1cc(Nc2n[nH]c3ncc(F)cc23)nc(-c2ccccc2Cl)c1`
≥ 8.00

Find pKi (GSK-3β (AA 1-420) (Homo sapiens (Human), UniProt P49841)) for the entry `Cc1cc(-c2ccccc2Cl)nc(Nc2n[nH]c3ncc(F)cc23)c1C`
< 8.00

Find pKi (GSK-3β (AA 1-420) (Homo sapiens (Human), UniProt P49841)) for the entry `Cc1cc(Nc2ncc(C)s2)nc(-c2ccccc2Cl)c1`
< 8.00

Find pKi (GSK-3β (AA 1-420) (Homo sapiens (Human), UniProt P49841)) for the entry `Cc1cc(Nc2n[nH]c3ncc(F)cc23)nc(-c2ccccc2Cl)c1C`
≥ 8.00

Find pKi (GSK-3β (AA 1-420) (Homo sapiens (Human), UniProt P49841)) for the entry `Fc1cnc2[nH]nc(Nc3cc(C(F)(F)F)cc(-c4ccccc4Cl)n3)c2c1`
< 8.00

Find pKi (GSK-3β (AA 1-420) (Homo sapiens (Human), UniProt P49841)) for the entry `Cc1cc(Nc2n[nH]c3ncc(F)cc23)nc(-c2ccccc2)c1C`
≥ 8.00

---

Assignment: determine reported pKi for the given molecules.
- system_name: GSK-3β (AA 1-420) (Homo sapiens (Human), UniProt P49841)
- test_method_notes: GSK-3 Inhibition Assay (standard coupled enzyme system)
- Assay type: biochemical
- measurement_parameters: 20 μM ATP, 300 μM peptide, 20 nM GSK-3β, 30° C.; read-out: Ki value, inhibition of GSK-3 (upper bound)
pKi: −log10 of the molar value.

Given the entry `Cc1cc(-c2ccccc2Cl)nc(Nc2n[nH]c3ncc(F)cc23)c1C` , report its measured pKi.
≥ 6.00

Given the entry `Fc1cnc2[nH]nc(Nc3cc(C(F)(F)F)cc(-c4ccccc4Cl)n3)c2c1` , report its measured pKi.
≥ 6.00

Given the entry `Cc1cc(Nc2ncc(C)s2)nc(-c2ccccc2Cl)c1` , report its measured pKi.
≥ 6.00

The origin of these recorded values is patent US8735593B2.
